# TARGET DESC: T1, high affinity SIRP-α D1 variant CV1-3
# T1 chain: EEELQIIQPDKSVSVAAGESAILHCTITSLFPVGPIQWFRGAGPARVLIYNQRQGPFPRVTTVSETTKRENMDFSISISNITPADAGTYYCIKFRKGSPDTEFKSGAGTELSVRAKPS
# TEST METHOD NOTES: SPR, Langmuir fit
Recorded koff, one value per entry.
Please respond with the number in s⁻¹ and leave the unit unwritten.

Guide cases for koff, answers given:
BINDER	TEST RESULT
S27 (scFv, V domains shown, also called clone 27; scFv-Fc form of AB27) VH: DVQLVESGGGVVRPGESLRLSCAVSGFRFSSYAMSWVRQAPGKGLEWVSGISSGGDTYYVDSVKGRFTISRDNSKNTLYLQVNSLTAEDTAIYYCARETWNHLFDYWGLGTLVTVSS VL: ALTQPASVSADLGETVKITCSGGDSSSHYYGWYQQKSPGSAPVTVIYSDDERPSDIPSRFSGSASGSTATLTITGVRVEDEAIYYCGAYDGSTYANTFGAGTTLTVL	8.94e-05
S202 (scFv, V domains shown) VH: DVQLVESGGGVVRPGESLRLSCAASGFTFSSYAMSWVRQAPGKGLEWLAGISAGGSDTYYIDSVKGRFTISRDNSKNSLYLQMNSLTAEDTAVYYCARETWNHLFDYWGLGTLVTVSS VL: ALTQPASVSANPGETVKITCSGGGYYSTYYGWYQQRSPGSAPVTVIHSDDKRPSDIPSRFSGSASGSAATLTITGVRVEDEAVYYCAGYDGRTYLNTFGAGTTLTVL	6.86e-05

Query string: # query: koff of entry S45 (scFv, V domains shown, also called clone 45; scFv-Fc form of AB45) VH: AVTLDESGGGLQTPGGALSLVCKASGFTFSSYAMGWVRQAPGKGLEWVAGIDDDGSTANYGPAVKGRATISRDNGQSTVRLQLNNPRAEDSGTYFCAKASVTGWSAHISGRLDTWGHGTEVIVSS VL: ALTQPASVSANPGETVKITCSGGGIYYYGWYQQKSPGSAPVTLIYENDKRPSDIPSRFSGSTSGSTNTFTITGVQAEDEAVYYCGGYDSNTTSGIFGAGTTLTVL
Result string: 4.76e-05
